Catalogue of IC50 readings, one per entry.
# testSystem: MAPK14 (human) (UniProt Q16539)
# Sequence (Q16539 whole entry, looked up): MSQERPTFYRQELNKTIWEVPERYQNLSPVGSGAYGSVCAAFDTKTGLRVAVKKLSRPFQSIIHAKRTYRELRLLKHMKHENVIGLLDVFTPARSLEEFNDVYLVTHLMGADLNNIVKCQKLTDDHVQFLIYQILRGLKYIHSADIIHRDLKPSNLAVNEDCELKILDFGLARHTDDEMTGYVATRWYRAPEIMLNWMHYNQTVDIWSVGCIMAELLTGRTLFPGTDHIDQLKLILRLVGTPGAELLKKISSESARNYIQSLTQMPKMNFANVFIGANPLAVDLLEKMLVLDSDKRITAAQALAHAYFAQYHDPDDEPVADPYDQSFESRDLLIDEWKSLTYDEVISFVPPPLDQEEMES
# experimentSummary: Inhibition of HFF Cell Proliferation
assayReadout: IC50

{"itemSmiles": "Fc1ccc(-c2nn3ccccc3c2-c2ccnc(NCc3cccnc3)c2)cc1", "testSystem": "MAPK14 (human) (UniProt Q16539)", "assayReadout": "IC50", "result": "5 to 50 µM"}
{"itemSmiles": "Fc1ccc(-c2nn3ccccc3c2-c2ccncn2)cc1", "testSystem": "MAPK14 (human) (UniProt Q16539)", "assayReadout": "IC50", "result": "> 50 µM"}
{"itemSmiles": "OCCCNc1cc(-c2c(-c3ccc(F)cc3)nn3ccccc23)ccn1", "testSystem": "MAPK14 (human) (UniProt Q16539)", "assayReadout": "IC50", "result": "> 50 µM"}
{"itemSmiles": "Fc1ccc(-c2nn3ccccc3c2-c2ccncc2)cc1", "testSystem": "MAPK14 (human) (UniProt Q16539)", "assayReadout": "IC50", "result": "> 50 µM"}
{"itemSmiles": "Nc1ncccc1C(=O)OCc1ccn2nc(-c3ccc(F)cc3)c(-c3ccncc3)c2c1", "testSystem": "MAPK14 (human) (UniProt Q16539)", "assayReadout": "IC50", "result": "> 50 µM"}

---

Heads up, these molecules all have pIC50 values measured for UniProtKB Q16539.
pIC50: −log10 of the molar value.
assayReadout: pIC50

{"itemSmiles": "CC(C)N(CCNc1nccc(-c2c(-c3ccc(F)c(Cl)c3)nn3cc(C(F)(F)F)ccc23)n1)C(C)C", "result": "6.00 to 7.00"}
{"itemSmiles": "FC(F)(F)c1ccc2c(-c3ccnc(NCCN4CCCCCC4)n3)c(-c3cccc(Cl)c3)nn2c1", "result": "6.00 to 7.00"}
{"itemSmiles": "Fc1ccc(-c2nn3ccccc3c2-c2ccnc(NCc3ccc(Cl)cc3)c2)cc1", "result": "> 6.30"}
{"itemSmiles": "FC(F)(F)c1ccc(-c2nn3cc(C(F)(F)F)ccc3c2-c2ccnc(NCCN3CCOCC3)n2)cc1", "result": "5.00 to 6.00"}
{"itemSmiles": "CSc1nccc(-c2c(-c3ccc(F)cc3)nn3ccccc23)n1", "result": "> 6.30"}
{"itemSmiles": "CCN(CC)CCNc1nccc(-c2c(-c3ccc(C(F)(F)F)cc3)nn3cc(C(F)(F)F)ccc23)n1", "result": "5.00 to 6.00"}
{"itemSmiles": "CCCN(CCC)CCNc1nccc(-c2c(-c3ccc(F)c(Cl)c3)nn3cc(C(F)(F)F)ccc23)n1", "result": "6.00 to 7.00"}
